Tested on: MOLM14
Assay: cell viability relative to vehicle control; higher = less cytotoxic;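 note: after 48 h exposure read by CellTiter-Glo luminescence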
Conditions: 10 µM; SRSF2 genotype: SRSF2 P95H/wt
Counter-ions that a name gives are not always drawn.
quantity name: cell viability (%)
Please state the figure in %; there is no need to write the unit.

C=C[C@@]12CN(C)[C@H]3C[C@]14C(=Nc1ccccc14)[C@@H]1C[C@@H]2[C@@H]3CO1 | 104

Field request: cell viability | item: CC1=C[C@H]2Cc3[nH]c(=O)ccc3[C@]3(C1)NCCC[C@H]23
113

# input molecule: C/C(=C\c1csc(C)n1)[C@@H]1C[C@@H]2O[C@]2(C)CCC[C@H](C)[C@H](O)[C@@H](C)C(=O)C(C)(C)[C@@H](O)CC(=O)O1 [Patupilone (EPO906, Epothilone B)] ; wanted: its cell viability
8.36

Field request: cell viability | item: CC(C)[C@]12O[C@H]1[C@@H]1O[C@]13[C@]1(O[C@H]1C[C@H]1C4=C(CC[C@@]13C)C(=O)OC4)[C@@H]2O [Triptolide]
2.33

Given C=C[C@H]1CN2CC[C@@]3(C(=O)Nc4ccccc43)[C@@H]2C[C@@H]1/C(=C\OC)C(=O)OC , state its recorded cell viability.
84.4

Data request, read-out cell viability, for CN(C)C1C(=O)C(C(N)=O)=C(O)C2(O)C(=O)C3=C(O)c4c(O)cccc4C(C)(O)C3CC12 (configuration not stated) [Tetracycline hydrochloride]
102

Fill blank: measured cell viability of the molecule C[C@H]1CC[C@@H]2N(C1)C[C@H]1[C@@H]3C[C@H]4[C@@H](CC(=O)[C@H]5C[C@@H](O)CC[C@@]54C)[C@@H]3CC[C@H]1[C@]2(C)O is ____.
105

Look up cell viability for this molecule: CCN(CC)C(=O)c1ccc(C2=CC3(CCNCC3)Oc3cccc(O)c32)cc1
97.5

Please give the measured cell viability for this molecule: O=Cc1ccccc1
93

What measured cell viability goes with C=CC1CN2CCC1CC2C(O)c1ccnc2ccccc12 (configuration not stated) ?
95.8

// lookup cell viability for C/C=C\c1cc(OC)c(OC)cc1OC
104

Reported cell viability for CCC1(c2cccc(O)c2)CCCCN(C)C1 (configuration not stated) [Meptazinol HCl] : what is it?
103

Bench note: what cell viability did Cc1sc2c(c1C)C(c1ccc(Cl)cc1)=N[C@@H](CC(=O)Nc1ccc(O)cc1)c1nnc(C)n1-2 show?
18

I have this molecule here, COc1cc2c(cc1OC)C(Cc1ccc(O)c(Oc3cc4c(cc3OC)CCN(C)C4Cc3ccc(O)cc3)c1)N(C)CC2.[O-][Cl+3]([O-])([O-])O (configuration not stated) [Liensinine diperchlorate] , and I need its recorded cell viability.
61.7

----------
Test system: MARIMO
Test: cell viability relative to vehicle control; higher = less cytotoxic
Settings: 10 µM; SRSF2 genotype: SRSF2 P95H/wt
Where a name gives a salt, the structure may show the parent alone.
# cell viability values compiled below
// return numeric value only (unit: %, not printed)

CCC1=C[C@H]2CN3CCc4c([nH]c5ccccc45)[C@](C(=O)OC)(C2)[C@H]13 [Catharanthine] | 81
CN(C)[C@@H]1C(=O)C(C(N)=O)=C(O)[C@@]2(O)C(=O)C3=C(O)c4c(O)cccc4[C@@](C)(O)[C@H]3[C@H](O)[C@@H]12 [Oxytetracycline (Terramycin)] | 90.8
CN(C)[C@@H]1C(=O)C(C(N)=O)=C(O)[C@@]2(O)C(=O)C3=C(O)c4c(O)cccc4[C@@](C)(O)[C@H]3[C@H](O)[C@@H]12 [Oxytetracycline dihydrate] | 104
Cn1c(COP(=O)(NCCBr)NCCBr)cnc1[N+](=O)[O-] | 39.3
COc1ccc(/C=C/c2cc(OC)cc(OC)c2)cc1 [3,4',5-Trimethoxy-trans-stilbene] | 47.5

Give recorded cell viability with MARIMO for the following compound: O=C(C[S+]([O-])C(c1ccccc1)c1ccccc1)NO (centres undefined) [Adrafinil]
92.9

So what cell viability did N[C@@H]1C[C@H]1c1ccccc1 [Tranylcypromine (2-PCPA) HCl] get with MARIMO?
98
